Recorded minimal effective dose, one value per entry.
- EXPERIMENT_SUMMARY: active avoidance test (memory retention; paw withdrawal reaction threshold)
- Format: in vivo, rat
- CONDITION_NOTES: sc; rat, subcutaneous, tested 24 hours later; read-out: Active dose mM/kg (minimum dose lowering the stimulus below 11 graduations; mM = millimole)
Your answer is read as µmol/kg, so omit the unit and give the number.

Below, each entry is followed by its recorded minimal effective dose result.
O=C1CCCN1CNC(=S)NCN1CCCC1=O; 1
O=C(NCN1CCCC1=O)NCN1CCCC1=O [Compound No. 1, 1,3-bis[(2-oxo-pyrrolidino)methyl]-urea]; 0.01
O=C(NCN1CCCCCC1=O)NCN1CCCCCC1=O; 0.005

Now for the molecule whose minimal effective dose we want.
Briefly, minimal effective dose measured for CC(CNC(=O)NCC(C)N1CCCC1=O)N1CCCC1=O (stereo not shown) : 0.01

###

- EXPERIMENT_SUMMARY: Toxicity by intraperitoneal administration (Irwin's test)
- Format: in vivo
- CONDITION_NOTES: mouse
MEASUREMENT_KIND: Dose mg/kg (dose which brings about the death of one animal out of eight in Irwin's test)

Below, each entry is followed by its recorded Dose mg/kg (dose which brings about the death of one animal out of eight in Irwin's test) result.
CCCCC1CCN(CNC(=S)NCN2CCC(CCCC)C2=O)C1=O (stereo not drawn); > 765.2 mg/kg
CCC(CNC(=O)NCC(CC)N1CCCC1=O)N1CCCC1=O (stereo not drawn); > 1014 mg/kg
O=C(NCCCN1CCCC1=O)NCN1CCCC1=O; > 846 mg/kg
O=C(NCN1CCCC1=O)NCN1CCCC1=O [Compound No. 1, 1,3-bis[(2-oxo-pyrrolidino)methyl]-urea]; > 1530 mg/kg
CC1(C)CCC(=O)N1CNC(=O)NCN1C(=O)CCC1(C)C; > 930 mg/kg

Briefly, Dose mg/kg (dose which brings about the death of one animal out of eight in Irwin's test) measured for `O=C(NCN1CCCCCC1=O)NCN1CCCC1=O` : > 846 mg/kg

Briefly, Dose mg/kg (dose which brings about the death of one animal out of eight in Irwin's test) measured for O=C1CCC(c2ccc(Cl)cc2)CN1CNC(=S)NCN1CC(c2ccc(Cl)cc2)CCC1=O (stereo not drawn) : > 1039 mg/kg

Briefly, Dose mg/kg (dose which brings about the death of one animal out of eight in Irwin's test) measured for `O=C(NCCCN1CCCC1=O)NCCCN1CCCC1=O` : 931.2 mg/kg

Briefly, Dose mg/kg (dose which brings about the death of one animal out of eight in Irwin's test) measured for C=CCC1(c2ccccc2)CCN(CNC(=O)NCN2CCC(CC=C)(c3ccccc3)C2=O)C1=O (stereo not drawn) : 1459.5 mg/kg

Briefly, Dose mg/kg (dose which brings about the death of one animal out of eight in Irwin's test) measured for CC1CC2(CCCCC2)C(=O)N1CNC(=O)NCN1C(=O)C2(CCCCC2)CC1C (stereo not drawn) : 1255.8 mg/kg

Briefly, Dose mg/kg (dose which brings about the death of one animal out of eight in Irwin's test) measured for `O=C(NCN1CCCCCCC1=O)NCN1CCCC1=O` : > 888 mg/kg

Briefly, Dose mg/kg (dose which brings about the death of one animal out of eight in Irwin's test) measured for CC1CCC(=O)N1CNC(=O)NCN1C(=O)CCC1C (stereo not drawn) : > 746 mg/kg
